experiment: self-splicing fitness, log relative to wild type (ln ratio); higher = more splicing; Tetrahymena group I intron in knt gene, E. coli kanamycin selection, DiMSum; sequences stand for … in CUCUCU…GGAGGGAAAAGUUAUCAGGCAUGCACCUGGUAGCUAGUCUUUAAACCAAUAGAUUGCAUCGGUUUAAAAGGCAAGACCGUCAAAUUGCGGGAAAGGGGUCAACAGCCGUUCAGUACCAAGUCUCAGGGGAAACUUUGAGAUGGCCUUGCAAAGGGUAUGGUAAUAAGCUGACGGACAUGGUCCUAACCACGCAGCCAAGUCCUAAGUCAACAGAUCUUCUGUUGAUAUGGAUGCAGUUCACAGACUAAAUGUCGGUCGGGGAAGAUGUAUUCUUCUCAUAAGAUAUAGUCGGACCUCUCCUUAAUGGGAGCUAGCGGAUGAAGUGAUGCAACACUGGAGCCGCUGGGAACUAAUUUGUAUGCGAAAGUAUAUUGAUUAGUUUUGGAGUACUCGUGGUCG; settings: 37 °C;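 note: selection with 25 µg/mL kanamycin versus none on LB agar overnight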
// map self-splicing fitness (ln) to label using lower bin (below -2), middle bin (-2 to below -1), upper bin (-1 or more)

A selection of reference data follows.
[[record]]
sequence_chain = "UUUGAGCAAUAUUACGUGUG"
group = "lower bin"

[[record]]
sequence_chain = "UACGAGCAAUAUUACGUCUA"
group = "upper bin"

[[record]]
sequence_chain = "GAAGAGCAAUAUUACGACUU"
group = "upper bin"

[[record]]
sequence_chain = "AAGUAGCAAUAUUACGUGUA"
group = "middle bin"

[[record]]
sequence_chain = "AGGCAGCAAUAUUACGCUUA"
group = "upper bin"


# classify by self-splicing fitness (ln) band: ACGCAGCAAUAUUACGGUAU
middle bin

Categorize the following entry: UACGAGCAAUAUUACGUAAU
middle bin

Into which category would you place GACCAGCAAUAUUACGGGUU ?
lower bin

Which category does the recorded self-splicing fitness (ln) put CGCGAGCAAUAUUACGAACC in?
upper bin

Looking at AAGCAGCAAUAUUACGCUGC , which class would you pick?
lower bin

Sort into band: CCCAAGCAAUAUUACGAGUA
lower bin
